System: Escherichia coli TOP10
Test: shrunken log2 fold change of peptide-encoding DNA abundance (4.5 h post-induction vs induction); higher = less antimicrobial activity (less host growth inhibition)
Conditions: time post-induction: 4.5 h; library: site-saturation at positions 5, 18, 19, 20
Would you kindly list shrunken log2 fold change for each of these sequences?

1. RRIRVRPPRLPRPRPRPKKPPRP    -0.0463
2. RRIRGRPPRLPRPRPRPQYVPRP    -0.0061
3. RRIRDRPPRLPRPRPRPWLWPRP    0.0548
4. RRIRKRPPRLPRPRPRPSARPRP    0.468
5. RRIRFRPPRLPRPRPRPRHFPRP    0.0931
6. RRIRERPPRLPRPRPRPIDYPRP    -0.0881

Please go through the list and note shrunken log2 fold change for each sequence.
1. RRIRDRPPRLPRPRPRPDGMPRP
2. RRIRIRPPRLPRPRPRPNFMPRP

Data returned:
0.232
0.713

Please go through the list and note shrunken log2 fold change for each sequence.
1. RRIRDRPPRLPRPRPRPRKIPRP
2. RRIRKRPPRLPRPRPRPKWTPRP

Data returned:
[0.0843, 0.198]

Please go through the list and note shrunken log2 fold change for each sequence.
1. RRIRDRPPRLPRPRPRPEDWPRP
2. RRIRCRPPRLPRPRPRPWMRPRP

Data returned:
[1.45, 0.19]

Please go through the list and note shrunken log2 fold change for each sequence.
1. RRIRQRPPRLPRPRPRPHWTPRP
2. RRIRRRPPRLPRPRPRPLLAPRP
3. RRIRCRPPRLPRPRPRPGLWPRP
4. RRIRVRPPRLPRPRPRPTWEPRP
5. RRIRPRPPRLPRPRPRPGEYPRP

Data returned:
-0.0125
0.887
0.569
0.00966
-0.207

###

Would you kindly list shrunken log2 fold change for each of these sequences?
Test system: Escherichia coli TOP10
Assay: shrunken log2 fold change of peptide-encoding DNA abundance (4.5 h post-induction vs induction); higher = less antimicrobial activity (less host growth inhibition)
Conditions: time post-induction: 4.5 h; library: site-saturation at positions 5, 18, 19, 20
Numbers only.

1. RRIRRRPPRLPRPRPRPNRVPRP    -0.0133
2. RRIRNRPPRLPRPRPRPAGMPRP    -0.126
3. RRIRMRPPRLPRPRPRPVFKPRP    -0.111
4. RRIRYRPPRLPRPRPRPCRWPRP    -0.267
5. RRIRMRPPRLPRPRPRPRNHPRP    0.263

Please go through the list and note shrunken log2 fold change for each sequence.
1. RRIRSRPPRLPRPRPRPWFVPRP
2. RRIRLRPPRLPRPRPRPHEYPRP
3. RRIRARPPRLPRPRPRPFDIPRP
4. RRIRERPPRLPRPRPRPKERPRP
5. RRIRERPPRLPRPRPRPPGHPRP
6. RRIRLRPPRLPRPRPRPRKGPRP
7. RRIRPRPPRLPRPRPRPRDKPRP

Data returned:
[-0.36, -0.0491, -0.127, 0.547, -0.0333, 0.0226, 0.144]

Please go through the list and note shrunken log2 fold change for each sequence.
1. RRIRDRPPRLPRPRPRPEIWPRP
2. RRIRTRPPRLPRPRPRPPIPPRP
3. RRIRERPPRLPRPRPRPDFWPRP
4. RRIRFRPPRLPRPRPRPNAEPRP
5. RRIRLRPPRLPRPRPRPWRWPRP

Data returned:
1. 0.162
2. 0.128
3. 0.214
4. 0.67
5. 0.0385

###

Test system: Escherichia coli TOP10
Assay: shrunken log2 fold change of peptide-encoding DNA abundance (4.5 h post-induction vs induction); higher = less antimicrobial activity (less host growth inhibition)
Conditions: time post-induction: 4.5 h; library: site-saturation at positions 5, 18, 19, 20
RECORDED ENDPOINT: shrunken log2 fold change
Give bare numbers.

The cases that follow already have their shrunken log2 fold change on record.
1) RRIRKRPPRLPRPRPRPCWQPRP    0.154
2) RRIRNRPPRLPRPRPRPNTSPRP    -0.0898
3) RRIRRRPPRLPRPRPRPVGLPRP    0.111
4) RRIRRRPPRLPRPRPRPWPLPRP    0.468
5) RRIRMRPPRLPRPRPRPPGDPRP    1.51
6) RRIRCRPPRLPRPRPRPNPSPRP    0.0638
7) RRIRLRPPRLPRPRPRPIMWPRP    -0.0155
8) RRIRPRPPRLPRPRPRPDFPPRP    -0.0174

Please go through the list and note shrunken log2 fold change for each sequence.
1. RRIRLRPPRLPRPRPRPFHPPRP
2. RRIRKRPPRLPRPRPRPQPQPRP
3. RRIRCRPPRLPRPRPRPVQIPRP
4. RRIRTRPPRLPRPRPRPEIHPRP
5. RRIRWRPPRLPRPRPRPMSEPRP

Data returned:
[-0.0146, 0.817, -0.0351, -0.0341, 0.0832]

###

System: Escherichia coli TOP10
Experiment: shrunken log2 fold change of peptide-encoding DNA abundance (4.5 h post-induction vs induction); higher = less antimicrobial activity (less host growth inhibition)
Details: time post-induction: 4.5 h; library: site-saturation at positions 5, 18, 19, 20
Entries are grouped by shrunken log2 fold change into these classes: LOW: < -0.2; MEDIUM: ≥ -0.2 and < -0.008; HIGH: ≥ -0.008

1) RRIRTRPPRLPRPRPRPVQHPRP    LOW
2) RRIRARPPRLPRPRPRPNDKPRP    MEDIUM
3) RRIRERPPRLPRPRPRPGQMPRP    HIGH
4) RRIRNRPPRLPRPRPRPCLLPRP    LOW
5) RRIRLRPPRLPRPRPRPEASPRP    HIGH

Data request: Pick a category. Item: "RRIRVRPPRLPRPRPRPVWCPRP"
Data returned: HIGH

Data request: Pick a category. Item: "RRIRLRPPRLPRPRPRPGALPRP"
Data returned: HIGH

###

Would you kindly list shrunken log2 fold change for each of these sequences?
System: Escherichia coli TOP10
Assay: shrunken log2 fold change of peptide-encoding DNA abundance (4.5 h post-induction vs induction); higher = less antimicrobial activity (less host growth inhibition)
Details: time post-induction: 4.5 h; library: site-saturation at positions 5, 18, 19, 20

Please go through the list and note shrunken log2 fold change for each sequence.
1. RRIRERPPRLPRPRPRPDDTPRP
2. RRIRWRPPRLPRPRPRPITGPRP
3. RRIRFRPPRLPRPRPRPEVYPRP
4. RRIRYRPPRLPRPRPRPYNYPRP
5. RRIRTRPPRLPRPRPRPPQPPRP
6. RRIRQRPPRLPRPRPRPEYYPRP
7. RRIRPRPPRLPRPRPRPKMFPRP
8. RRIRLRPPRLPRPRPRPKSKPRP

Data returned:
1. -0.0925
2. 0.047
3. 0.000414
4. -1.3
5. 0.154
6. -0.306
7. 0.149
8. -0.071

Please go through the list and note shrunken log2 fold change for each sequence.
1. RRIRWRPPRLPRPRPRPFRCPRP
2. RRIRHRPPRLPRPRPRPVKFPRP
3. RRIRARPPRLPRPRPRPGRRPRP
4. RRIRPRPPRLPRPRPRPNKVPRP
5. RRIRYRPPRLPRPRPRPNIVPRP
6. RRIRPRPPRLPRPRPRPWFVPRP
7. RRIRQRPPRLPRPRPRPELWPRP
8. RRIRFRPPRLPRPRPRPQFNPRP

Data returned:
1: -0.257; 2: -0.0191; 3: 0.339; 4: -0.1; 5: -0.224; 6: -0.25; 7: 0.27; 8: -0.628

###

System: Escherichia coli TOP10;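 note: peptides expressed intracellularly from a pBAD plasmid library in pooled LB shake-flask culture, induced with 0.3% L-arabinose, DNA abundance read by NGS, three biological replicates, DESeq2 with apeglm shrinkage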
Assay: shrunken log2 fold change of peptide-encoding DNA abundance (4.5 h post-induction vs induction); higher = less antimicrobial activity (less host growth inhibition)
Conditions: time post-induction: 4.5 h; library: site-saturation at positions 5, 18, 19, 20
Outcome label depends on shrunken log2 fold change relative to -0.09: at/above gives T, below gives F.

Look over these answered cases.
1) RRIRIRPPRLPRPRPRPQFLPRP    F
2) RRIRIRPPRLPRPRPRPRSTPRP    F
3) RRIRVRPPRLPRPRPRPKSLPRP    T

Data request: Please indicate if the recorded shrunken log2 fold change for "RRIRHRPPRLPRPRPRPGVAPRP" meets or exceeds -0.09.
Data returned: T

Data request: Please indicate if the recorded shrunken log2 fold change for "RRIRMRPPRLPRPRPRPSPCPRP" meets or exceeds -0.09.
Data returned: T

Data request: Please indicate if the recorded shrunken log2 fold change for "RRIRYRPPRLPRPRPRPDRDPRP" meets or exceeds -0.09.
Data returned: F

Data request: Please indicate if the recorded shrunken log2 fold change for "RRIRHRPPRLPRPRPRPFIPPRP" meets or exceeds -0.09.
Data returned: T

Data request: Please indicate if the recorded shrunken log2 fold change for "RRIRCRPPRLPRPRPRPLWRPRP" meets or exceeds -0.09.
Data returned: T

Cited source: the supplement of paper PMC9112550
